ASSAY_NAME: Clearance in Por lox/lox wild type mouse at 2.5 mg/kg, po treated 10 days after 80 mg/kg, ip beta-naphthoflavone administration by liquid chromatography-tandem mass spectrometry
Format: ADME, organism-based
TEST_PARAMETERS: in vivo
VALUE_TYPE: CL/F
Form field: result (number plus unit)

Task: Item Cc1ncc2n1-c1ccc(Cl)cc1C(c1ccccc1F)=NC2 [MIDAZOLAM] has what recorded CL/F?
Result: 180 mL/min/kg

###

ASSAY_NAME: Cmax in Por lox/lox wild type mouse at 2.5 mg/kg, po treated 10 days after 80 mg/kg, ip beta-naphthoflavone administration by liquid chromatography-tandem mass spectrometry
Type: ADME, organism-based
TEST_PARAMETERS: in vivo
VALUE_TYPE: Cmax (ng/mL)
Give bare numbers, in ng/mL.

Task: Item Cc1ncc2n1-c1ccc(Cl)cc1C(c1ccccc1F)=NC2 [MIDAZOLAM] has what recorded Cmax?
Result: 140
